# Test system: IL-4 production
# Experimental Details: Test 1: inhibition of IL-4 production in human T-cell strain ATL-16T(-) stimulated with PMA (R&D Systems EIA)
# Format: cell-based
# Study Conditions: 10^-5 M, ATL-16T(-) 1×10^6 cells/0.5 ml/well, 20 nM PMA, 48 hours, read-out: Inhibition rate of IL-4 production
Listing: inhibition at 10 µM of selected molecules
The answer is to be given in %; state only the numeric part.

Need inhibition at 10 µM of COc1cnc(/C=C/C(=O)c2ccccc2)cc1OCC(=O)c1ccccc1 [Ex. 47] , thanks.
113

Again, but for CCCCCC(O)/C=C/c1cc(OCCCCCC(=O)OC)c(OC)cn1 (centres unmarked) [Ex. 30]
74

Here is the next molecule: COCOc1cc(/C=C/C(=O)c2ccccc2)ncc1OC [Ex. 4]
86.2

# repeat for COC(=O)CCCOc1cc(/C=C/C(=O)c2ccccc2)ncc1OC [Ex. 16]
90.1

Same lookup for COc1cnc(/C=C/C(=O)c2ccccc2)cc1OC [Ex. 1] , please.
97.5

###

Collected inhibition at 100 mg/kg values appear next to each entry.
# System: IgG2a production
# Experimental Details: Test 4 (comparison): inhibition of IgG2a production
# Assay type: in vivo, Balb/c mouse
# Study Conditions: Mus musculus, po; 100 mg/kg orally once a day, Day 1 to Day 10; spleen cells, DNP-BSA 5 μg/ml, 24 hours; read-out: Inhibition rate of IgG2a production
Structures can show the parent of a compound that is named as a salt.
Give your result in % as a bare value.

[
  {
    "Molecule": "CCOC(=O)CCCOc1cc(/C=C/C(=O)c2ccccc2)ncc1OC [Ex. 44]",
    "inhibition at 100 mg/kg [%]": -2.2
  }
]

Entry COc1cnc(/C=C/C(=O)C2CCCCC2)cc1OCCCC(=O)O [Ex. 106] : reported inhibition at 100 mg/kg = ?
2.1

Thanks! And CCOC(=O)CCCCCOc1cc(/C=C/C(=O)c2ccccc2OC)ncc1OC [Ex. 94, hydrochloride] ?
2.8

Now the molecule CCOC(=O)CCCCCOc1cc(/C=C/C(=O)C2CCCCC2)ncc1OC [Ex. 77]
-3.9

Do the same for COC(=O)c1ccc(COc2cc(/C=C/C(=O)c3ccccc3OC)ncc2OC)cc1 [Ex. 99] please
2.7

Now try CCOC(=O)CCCCCOc1cc(/C=C/C(=O)c2cc(OC)ccc2OC)ncc1OC [Ex. 88, hydrochloride] .
8.6

Same read-out for O=C(/C=C/c1cc(O)c(O)cn1)c1ccccc1 [Ex. 20] ?
1.3

Now the same for CCOC(=O)CCCOc1cc(/C=C/C(=O)c2c(OC)cccc2OC)ncc1OC [Ex. 86, hydrochloride]
6.2

Field entry: CCOC(=O)CCCCCCCCCCCOc1cc(/C=C/C(=O)c2ccccc2OC)ncc1OC [Ex. 97, hydrochloride]
-9.5

###

# Tested on: IgE production
# Experimental Details: Test 4: inhibition of IgE production by spleen cells of orally treated sensitized mice
# Format: in vivo, Balb/c mouse
# Study Conditions: Mus musculus, po, 100 mg/kg orally once a day, Day 1 to Day 10, DNP-BSA 5 μg/ml, 24 hours, read-out: Inhibition rate of IgE production
Structures can show the parent of a compound that is named as a salt.
Experimental Endpoint: inhibition at 100 mg/kg (%)
Your answer should be a plain number; it is taken to be in %.

Suppose we examine the molecule CCOC(=O)CCCCCOc1cc(/C=C/C(=O)c2ccccc2OC)ncc1OC [Ex. 94, hydrochloride] ; what inhibition at 100 mg/kg value has been reported?
63.4

Same read-out for CCOC(=O)CCCCCOc1cc(/C=C/C(=O)c2cc(OC)ccc2OC)ncc1OC [Ex. 88, hydrochloride] ?
22.7

# iterate: COc1cnc(/C=C/C(=O)c2ccccc2OC)cc1OCCCCCC(=O)O
47.7

Input CCOC(=O)CCCCCOc1cc(/C=C/C(=O)c2ccsc2)ncc1OC
23.9
